# tgt: T1, TNFR1 (Homo sapiens, UniProt P19438)
# T1 chain: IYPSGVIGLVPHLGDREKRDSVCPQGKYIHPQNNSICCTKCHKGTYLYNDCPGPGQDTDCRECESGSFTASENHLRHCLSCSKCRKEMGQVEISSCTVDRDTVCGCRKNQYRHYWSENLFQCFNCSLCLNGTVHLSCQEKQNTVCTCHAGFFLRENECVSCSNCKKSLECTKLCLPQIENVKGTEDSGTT
# experiment: yeast display SC50
List of apparent Kd (screen) values.
Give me the value, and tack the unit on after it.

K66W (designed binder) MTLQELLREEALRRAEAEAFRYALELLAEKFPEQKEYLLDLAEEIESQIRSLSGVDVEDVRKFLDWEWAWVKELLAEHPAELAEVEAARAARLAELRAEVEAKVAA	539 pM
R21L (designed binder) MTLQELLREEALRRAEAEAFLYALELLAEKFPEQKEYLLDLAEEIESQIRSLSGVDVEDVRKFLDKEWAWVKELLAEHPAELAEVEAARAARLAELRAEVEAKVAA	653 pM
V104A (designed binder) MTLQELLREEALRRAEAEAFRYALELLAEKFPEQKEYLLDLAEEIESQIRSLSGVDVEDVRKFLDKEWAWVKELLAEHPAELAEVEAARAARLAELRAEVEAKAAA	653 pM
L64A (designed binder) MTLQELLREEALRRAEAEAFRYALELLAEKFPEQKEYLLDLAEEIESQIRSLSGVDVEDVRKFADKEWAWVKELLAEHPAELAEVEAARAARLAELRAEVEAKVAA	13800 pM
E46F (designed binder) MTLQELLREEALRRAEAEAFRYALELLAEKFPEQKEYLLDLAEEIFSQIRSLSGVDVEDVRKFLDKEWAWVKELLAEHPAELAEVEAARAARLAELRAEVEAKVAA	490 pM
L39V (designed binder) MTLQELLREEALRRAEAEAFRYALELLAEKFPEQKEYLVDLAEEIESQIRSLSGVDVEDVRKFLDKEWAWVKELLAEHPAELAEVEAARAARLAELRAEVEAKVAA	653 pM

Data point: V71H (designed binder) MTLQELLREEALRRAEAEAFRYALELLAEKFPEQKEYLLDLAEEIESQIRSLSGVDVEDVRKFLDKEWAWHKELLAEHPAELAEVEAARAARLAELRAEVEAKVAA ; apparent Kd (screen) = 539 pM

Note to self: apparent Kd (screen) recorded for R61D (designed binder) MTLQELLREEALRRAEAEAFRYALELLAEKFPEQKEYLLDLAEEIESQIRSLSGVDVEDVDKFLDKEWAWVKELLAEHPAELAEVEAARAARLAELRAEVEAKVAA was 11400 pM
